Catalogue of MAC Deposition, 20% Serum EC50 values
- TARGET_UNDER_TEST: Cynomolgus Factor P (cynomolgus)
- PROCEDURE_DETAILS: cell-based or functional assay
QUANTITY_NAME: MAC Deposition, 20% Serum EC50 (nM)

INSERT INTO measurements (binder, quantity_name, result_number) VALUES
  ('NVS965-S (Fab, V domains shown, NVS965 with heavy chain N30 replaced with serine) VH: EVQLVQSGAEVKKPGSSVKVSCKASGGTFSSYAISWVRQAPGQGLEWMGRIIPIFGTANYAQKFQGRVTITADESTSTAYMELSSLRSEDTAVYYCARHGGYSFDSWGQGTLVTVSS VL: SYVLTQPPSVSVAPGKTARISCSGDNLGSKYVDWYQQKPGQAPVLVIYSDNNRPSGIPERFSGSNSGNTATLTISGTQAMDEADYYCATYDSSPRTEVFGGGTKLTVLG', 'MAC Deposition, 20% Serum EC50', 8.12),
  ('NVS965-T (Fab, V domains shown, NVS965 with heavy chain N30 replaced with threonine) VH: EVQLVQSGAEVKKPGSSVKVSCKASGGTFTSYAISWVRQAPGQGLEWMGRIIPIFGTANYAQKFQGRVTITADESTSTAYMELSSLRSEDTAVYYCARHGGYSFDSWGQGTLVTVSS VL: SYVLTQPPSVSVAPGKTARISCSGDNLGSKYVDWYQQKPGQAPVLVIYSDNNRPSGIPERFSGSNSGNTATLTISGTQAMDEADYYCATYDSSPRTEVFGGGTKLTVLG', 'MAC Deposition, 20% Serum EC50', 11),
  ('NVS965 (Fab, V domains shown, Disulfide-bridged Fab; also called Fab NVS965) VH: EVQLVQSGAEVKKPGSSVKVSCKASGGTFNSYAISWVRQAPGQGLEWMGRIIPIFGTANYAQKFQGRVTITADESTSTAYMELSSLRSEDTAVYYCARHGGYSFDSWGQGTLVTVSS VL: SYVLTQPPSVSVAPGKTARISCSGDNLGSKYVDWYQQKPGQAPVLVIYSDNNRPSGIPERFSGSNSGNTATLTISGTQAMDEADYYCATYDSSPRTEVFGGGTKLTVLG', 'MAC Deposition, 20% Serum EC50', 22.2),
  ('NVS804 (Fab, V domains shown) VH: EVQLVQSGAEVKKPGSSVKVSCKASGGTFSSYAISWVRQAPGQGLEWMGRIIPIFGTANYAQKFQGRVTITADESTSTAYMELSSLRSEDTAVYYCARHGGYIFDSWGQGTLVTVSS VL: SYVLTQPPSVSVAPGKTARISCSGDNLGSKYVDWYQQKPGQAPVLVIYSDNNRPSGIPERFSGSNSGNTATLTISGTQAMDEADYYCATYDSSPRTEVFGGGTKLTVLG', 'MAC Deposition, 20% Serum EC50', 8.51),
  ('NVS962-S31A (Fab, V domains shown, NVS962 with heavy chain serine 31 replaced with alanine) VH: EVQLVQSGAEVKKPGSSVKVSCKASGGTFNAYAISWVRQAPGQGLEWMGRIIPIFGTANYAQKFQGRVTITADESTSTAYMELSSLRSEDTAVYYCARHGGYSFDSWGQGTLVTVSS VL: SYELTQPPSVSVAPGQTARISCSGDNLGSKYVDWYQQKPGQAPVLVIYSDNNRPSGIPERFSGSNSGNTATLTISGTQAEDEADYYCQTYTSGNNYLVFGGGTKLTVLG', 'MAC Deposition, 20% Serum EC50', 7.86);

Sourced from patent US20130295102A1
